assay.name: Drug diffusion through egg shell membrane in diffusion cell with dodecyl L-pyroglutamate
condition.label: control without enhancer = 100; drug 0.05%, dodecyl L-pyroglutamate 1.0% in donor side, 37° C
Listing: Relative amount of permeation after 30 minutes of selected compounds
Respond with the number and no other words.

# annotated cases, reported Relative amount of permeation after 30 minutes shown
COc1ccc2c(c1)c(CC(=O)O)c(C)n2C(=O)c1ccc(Cl)cc1 [Indomethacin]	220
CN(C)CCCN1c2ccccc2Sc2ccc(Cl)cc21 [Chlorpromazine]	124
C[C@](N)(Cc1ccc(O)c(O)c1)C(=O)O [Methyldopa]	153

Query: Any idea what its Relative amount of permeation after 30 minutes is? The compound is O=C(O)c1ccccc1O [Salicyclic acid]
Reply: 208

Query: Continue with COC1=CC(=O)C[C@@H](C)[C@]12Oc1c(Cl)c(OC)cc(OC)c1C2=O [Griseofulvin]
Reply: 221

Query: Continue with C[C@]12CC[C@@H]3c4ccc(O)cc4CC[C@H]3[C@@H]1CC[C@@H]2O [Estradiol]
Reply: 203

Query: Continue with CCCCC[C@H](O)/C=C/[C@@H]1[C@@H](C/C=C\CCCC(=O)O)[C@@H](O)C[C@H]1O [Prostaglandin F2]
Reply: 166
